system: Plasmodium berghei; test: Luciferase/luciferin-expressing antifolate-resistant parasites were used to infect a culture of HepG2 cells that were pre-incubated with compounds. Infected hepatocytes emit light due to the luciferase reaction. Assay results are presented as the percent inhibition of light emission compared to control. […]; assay type: functional; conditions: sporozoite, HEPG2TOX_HILL_SLOPE 0.52, HEPG2TOX_R_SQUARED 0.623, PBLUC_HILL_SLOPE 14.9, PBLUC_R_SQUARED 0.282, read-out: LUCIFERASE INFECTION ASSAY - IC50
Reported Metric: IC50

### Prompt Give the measured IC50 of COc1cc(NC(=O)COC(=O)c2c3c(nc4ccccc24)CCC(C(C)(C)C)C3)c(C)cc1[N+](=O)[O-] (stereo unspecified) .
### Response > 10 µM

----------
system: Plasmodium berghei; assay: Luciferase/luciferin-expressing antifolate-resistant parasites were used to infect a culture of HepG2 cells that were pre-incubated with compounds. Infected hepatocytes emit light due to the luciferase reaction. Assay results are presented as the percent inhibition of light emission compared to control. […]; format: functional; details: sporozoite, FFLUC_HILL_SLOPE 17, FFLUC_R_SQUARED 0.51, read-out: LUCIFERASE INFECTION ASSAY - IC50
pIC50: −log10 of the molar value.
Reported Metric: pIC50

### Prompt pIC50 of "Cc1cc(C)c(C)c(S(=O)(=O)N2CCN(CC(=O)c3c(N)n(Cc4ccccc4)c(=O)n(C)c3=O)CC2)c1C" on Plasmodium berghei?
### Response < 5.00

----------
test system: Plasmodium berghei; experiment: Luciferase/luciferin-expressing antifolate-resistant parasites were used to infect a culture of HepG2 cells that were pre-incubated with compounds. Infected hepatocytes emit light due to the luciferase reaction. Assay results are presented as the percent inhibition of light emission compared to control. […]; format: functional; conditions: sporozoite, HEPG2TOX_HILL_SLOPE 2.22, HEPG2TOX_R_SQUARED 0.687, PBLUC_HILL_SLOPE 18.4, PBLUC_R_SQUARED 0.747, read-out: LUCIFERASE INFECTION ASSAY - IC50
Reported Metric: pIC50
Give bare numbers, as −log10 of the molar value.

### Prompt Which pIC50 is reported for this molecule? "Cc1ccn2cc(C(=O)N3CCN(Cc4ccc(C(F)(F)F)cc4)CC3)nc2c1"
### Response 5.47

----------
test system: Plasmodium berghei; test: Luciferase/luciferin-expressing antifolate-resistant parasites were used to infect a culture of HepG2 cells that were pre-incubated with compounds. Infected hepatocytes emit light due to the luciferase reaction. Assay results are presented as the percent inhibition of light emission compared to control. […]; type: functional; details: sporozoite, FFLUC_HILL_SLOPE 10.9, FFLUC_R_SQUARED 0.158, HEPG2TOX_HILL_SLOPE 3.24, HEPG2TOX_R_SQUARED 0.613, PBLUC_HILL_SLOPE 5.35, PBLUC_R_SQUARED 0.563, read-out: LUCIFERASE INFECTION ASSAY - IC50
Reported Metric: IC50 (µM)
Numbers only, in µM.

### Prompt What value of IC50 has been reported for the following compound? O=C(NCC(c1ccco1)N1CCCC1)c1ccc(Cl)c(S(=O)(=O)N2CCc3ccccc32)c1 (stereo unspecified)
### Response 7.08

----------
tested on: Plasmodium berghei; assay: Luciferase/luciferin-expressing antifolate-resistant parasites were used to infect a culture of HepG2 cells that were pre-incubated with compounds. Infected hepatocytes emit light due to the luciferase reaction. Assay results are presented as the percent inhibition of light emission compared to control. […]; format: functional; conditions: sporozoite, PBLUC_HILL_SLOPE 3.36, PBLUC_R_SQUARED 0.528, read-out: LUCIFERASE INFECTION ASSAY - IC50
Reported Metric: pIC50
Numbers only, as −log10 of the molar value.

### Prompt Which measured pIC50 value corresponds to "CS(=O)(=O)c1ccc(Nc2cc3[nH]c(-c4cccc(C(F)(F)F)c4)cc3cn2)cc1" ?
### Response 5.29

----------
test system: Plasmodium berghei; assay: Luciferase/luciferin-expressing antifolate-resistant parasites were used to infect a culture of HepG2 cells that were pre-incubated with compounds. Infected hepatocytes emit light due to the luciferase reaction. Assay results are presented as the percent inhibition of light emission compared to control. […]; type: functional; conditions: sporozoite, PBLUC_HILL_SLOPE 10.6, PBLUC_R_SQUARED 0.425, read-out: LUCIFERASE INFECTION ASSAY - IC50
Reported Metric: IC50 (µM)
Answers are plain numbers, in µM.

### Prompt Endpoint output: IC50 of "CCCOc1c(/C=C/C(=O)c2ccc(OCC#N)cc2)cccc1OCC" . Value?
### Response 7.88

----------
test system: Plasmodium berghei; assay: Luciferase/luciferin-expressing antifolate-resistant parasites were used to infect a culture of HepG2 cells that were pre-incubated with compounds. Infected hepatocytes emit light due to the luciferase reaction. Assay results are presented as the percent inhibition of light emission compared to control. […]; assay type: functional; settings: sporozoite, FFLUC_HILL_SLOPE 74, FFLUC_R_SQUARED 0.292, read-out: LUCIFERASE INFECTION ASSAY - IC50
pIC50: −log10 of the molar value.
Reported Metric: pIC50

### Prompt Give its pIC50 value. Item: "COc1ccc2c(-c3ccccc3)cc(SC(c3ccccc3)c3ccccc3)nc2c1"
### Response < 5.00

----------
test system: Plasmodium berghei; assay: Luciferase/luciferin-expressing antifolate-resistant parasites were used to infect a culture of HepG2 cells that were pre-incubated with compounds. Infected hepatocytes emit light due to the luciferase reaction. Assay results are presented as the percent inhibition of light emission compared to control. […]; format: functional; conditions: sporozoite, read-out: LUCIFERASE INFECTION ASSAY - IC50
Field: IC50. Provide a value for each of the compounds that follow.

Example entries begin here.
                                   compound  reported_metric  measured_value
0  CCOC(=O)c1nnsc1[S+]([O-])c1ccc(Cl)cc1 (stereo unspecified)             IC50       > 10.4 µM
1  CCCn1c(NC(=O)C2CCN(c3ccc4nnc(C(F)(F)F)n4n3)CC2)nc2ccccc21             IC50         6.49 µM
2  O=S(=O)(NCc1cc(C(F)(F)F)cc(C(F)(F)F)c1)c1cc(C(F)(F)F)cc(C(F)(F)F)c1             IC50       > 6.35 µM
3  CCN(CC)C(=O)c1sc2nc(-c3ccccn3)nc(O)c2c1C             IC50         > 10 µM

Return reported IC50 values for all items listed beneath this line.
1. COCCNCCOc1ccc(OCc2ccccc2)cc1
2. Cc1cccc(NS(=O)(=O)c2cc(C(=O)OCC(=O)Nc3ccc(F)c(F)c3F)ccc2C)c1

### Response
> 10.9 µM
> 10 µM

----------
test system: Plasmodium berghei; test: Luciferase/luciferin-expressing antifolate-resistant parasites were used to infect a culture of HepG2 cells that were pre-incubated with compounds. Infected hepatocytes emit light due to the luciferase reaction. Assay results are presented as the percent inhibition of light emission compared to control. […]; format: functional; details: sporozoite, read-out: LUCIFERASE INFECTION ASSAY - IC50
Reported Metric: IC50

Some solved entries appear below for comparison.
>>> print(df.to_string())
                                   molecule  reported_metric  measured_value
0  Cc1cc(-c2nc3c(c(=O)[nH]c(=O)n3Cc3ccccc3)n2CC2CCCO2)cc(C)c1O (configuration not stated)             IC50         > 10 µM
1  Cn1c(NCc2ccccc2F)nc2cnc(-c3ccc(Cl)cc3)cc21             IC50         > 10 µM
2       CCOC(=O)c1c[nH]c2cc(Cl)cc(Cl)c2c1=O             IC50       > 11.5 µM

Can you give me IC50 for all of these, one by one?
1. CCCCCCOc1ccc(-c2cnc(SC)nc2)cc1
2. COc1ccc(-c2ccc3c(c2)COC2(CCN(C(=O)c4cc(F)ccc4C)CC2)O3)cc1OC
3. NC(Cc1ccccc1)c1csc(NC(=O)Nc2ccccc2-c2ccccc2)n1 (configuration not stated)

### Response
1. 0.205 µM
2. > 6.91 µM
3. > 7.96 µM

### Prompt Request: IC50, test system Plasmodium berghei, entry "Cc1c(OCc2ccc(Br)cc2)ccc2c1OC(C)(C)C=C2"
### Response 0.199 µM

----------
tested on: Plasmodium berghei; assay: Luciferase/luciferin-expressing antifolate-resistant parasites were used to infect a culture of HepG2 cells that were pre-incubated with compounds. Infected hepatocytes emit light due to the luciferase reaction. Assay results are presented as the percent inhibition of light emission compared to control. […]; format: functional; settings: sporozoite, HEPG2TOX_HILL_SLOPE 15.2, HEPG2TOX_R_SQUARED 0.624, PBLUC_HILL_SLOPE 17, PBLUC_R_SQUARED 0.625, read-out: LUCIFERASE INFECTION ASSAY - IC50
Reported Metric: IC50 (µM)
One number for each entry, in µM.

### Prompt Could you share which IC50 value was measured for NC(CCc1ccccc1)c1csc(Nc2ccc(C(=O)NCc3ccco3)cn2)n1 (stereo unspecified) ?
### Response 6.62
